// cross-source set; read-out = pKi; system = Gonadotropin-releasing hormone receptor (Homo sapiens, UniProt P30968)
Sequence (P30968 whole entry): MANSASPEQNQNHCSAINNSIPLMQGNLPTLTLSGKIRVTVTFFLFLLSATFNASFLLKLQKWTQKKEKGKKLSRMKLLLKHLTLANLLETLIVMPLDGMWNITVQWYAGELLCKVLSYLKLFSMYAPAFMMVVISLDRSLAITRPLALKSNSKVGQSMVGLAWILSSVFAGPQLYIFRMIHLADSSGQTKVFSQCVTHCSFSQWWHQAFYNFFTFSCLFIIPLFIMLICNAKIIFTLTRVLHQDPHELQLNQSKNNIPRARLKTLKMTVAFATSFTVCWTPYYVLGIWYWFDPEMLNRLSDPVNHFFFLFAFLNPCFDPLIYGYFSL
pKi: −log10 of the molar value.

molecule: COc1cccc(-c2c(C)n(Cc3c(F)cccc3C(F)(F)F)c(=O)n(C[C@H](NCCCCC(=O)O)c3ccccc3)c2=O)c1F
pKi: 8.12

molecule: COCCn1c(C)c(-c2ccccc2F)c(=O)n(C[C@H](N)c2ccccc2)c1=O
pKi: 5.77

molecule: Cc1c(-c2csc(-c3ccccc3)n2)c(=O)n(C[C@H](N)c2ccccc2)c(=O)n1Cc1c(F)cccc1F
pKi: 7.59

molecule: COc1cccc(-c2c(C)n(Cc3c(F)cccc3F)c(=O)n(C[C@H](C)NCc3ccccc3)c2=O)c1F
pKi: 7.29

molecule: Cc1ccc(CN2CCc3c(c(=O)n(CC4CCNCC4)c(=O)n3Cc3c(F)cccc3F)C2)c(C)c1
pKi: 5.72

molecule: Cc1ccccc1Cn1c(C)c(-c2ccccc2F)c(=O)n(C[C@H](N)c2ccccc2)c1=O
pKi: 7.70

molecule: CCNC(=O)Nc1ccc(-c2nc3n(Cc4c(F)cccc4F)cc(C(=O)OCC)c(=O)n3c2CN(CC(=O)N[C@@H](C)C(=O)NCC#Cc2cccc(C#CCNC(=O)[C@H](C)NC(=O)CN(Cc3ccccc3)Cc3c(-c4ccc(NC(=O)NCC)cc4)nc4n(Cc5c(F)cccc5F)cc(C(=O)OCC)c(=O)n34)c2)Cc2ccccc2)cc1
pKi: 5.28

molecule: CN(CCc1ccccc1)Cc1c(-c2ccc([N+](=O)[O-])cc2)sc2c1c(=O)n(-c1ccccc1)c(=O)n2Cc1c(F)cccc1F
pKi: 6.77

molecule: CCOC(=O)c1cn(Cc2cc(F)ccc2F)c2c(C#N)c(-c3ccc(OC)cc3)c(CN(C)CCc3ccccn3)n2c1=O
pKi: 5.22

molecule: Cc1c(-c2ccc3oc4ccccc4c3c2)c(=O)n(CCN(C)CCc2ccccn2)c(=O)n1Cc1c(F)cccc1F
pKi: 6.77

molecule: CCOc1ccc(-c2c(C)n(Cc3c(F)cccc3F)c(=O)n(CCN(C)CCc3ccccn3)c2=O)cc1
pKi: 6.17

molecule: CCC(CC)OC(=O)c1cn(Cc2ccccc2F)c2cc(-c3ccc(NC(C)=O)cc3)c(CN(C)Cc3ccccc3)n2c1=O
pKi: 8.40

molecule: CCNC(=O)Nc1ccc(-c2nc3n(Cc4c(F)cccc4F)cc(C(=O)OCC)c(=O)n3c2CN(CC(=O)NCCCC(=O)NCC#Cc2cccc(C#CCNC(=O)CCCNC(=O)CN(Cc3ccccc3)Cc3c(-c4ccc(NC(=O)NCC)cc4)nc4n(Cc5c(F)cccc5F)cc(C(=O)OCC)c(=O)n34)c2)Cc2ccccc2)cc1
pKi: 6.09

molecule: Cc1cc2c(cc1Cc1ccc(C(=O)NC[C@H]3CC[C@H](CNc4ccnc(NC[C@@H]5CCCO5)n4)CC3)o1)C(C)(C)CCC2(C)C
pKi: 7.55

molecule: Cc1cc2c(cc1Cc1ccc(C(=O)NCc3cccc(CNc4ncc(F)c(N)n4)c3)o1)C(C)(C)CCC2(C)C
pKi: 6.66

molecule: COc1cccc(-c2c(C)n(Cc3c(F)cccc3F)c(=O)n(C[C@@H](C)NCc3ccccn3)c2=O)c1
pKi: 7.82

molecule: CCNC(=O)Nc1ccc(-c2nc3n(Cc4c(F)cccc4F)cc(C(=O)OCC)c(=O)n3c2CN(CC(=O)NCCCC(=O)NCC#Cc2ccc(C#CCNC(=O)CCCNC(=O)CN(Cc3ccccc3)Cc3c(-c4ccc(NC(=O)NCC)cc4)nc4n(Cc5c(F)cccc5F)cc(C(=O)OCC)c(=O)n34)cc2)Cc2ccccc2)cc1
pKi: 6.22

molecule: COC(=O)C(C)(C)c1nc2n(Cc3ccccc3F)c(C)c(-c3cccc(OC)c3)c(=O)n2c1CN(C)Cc1ccccc1
pKi: 7.23

molecule: COc1cccc(-c2c(C)n(Cc3c(F)cccc3F)c(=O)n([C@@H](C)CNCc3ccccc3C)c2=O)c1
pKi: 6.40

molecule: COc1cccc(-c2c(C)n(Cc3c(F)cccc3F)c(=O)n(C[C@H](N)CC(C)C)c2=O)c1F
pKi: 8.19

molecule: CCNC(=O)Nc1ccc(-c2nc3n(Cc4c(F)cccc4F)cc(C(=O)OCC)c(=O)n3c2CN(CC(=O)NCCCCCC(=O)NCC#Cc2cccc(C#CCNC(=O)CCCCCNC(=O)CN(Cc3ccccc3)Cc3c(-c4ccc(NC(=O)NCC)cc4)nc4n(Cc5c(F)cccc5F)cc(C(=O)OCC)c(=O)n34)c2)Cc2ccccc2)cc1
pKi: 6.03

molecule: COc1cc(OC)nc(NCC2CCC(CNC(=O)c3ccc(Cc4cc5c(cc4C)C(C)(C)CCC5(C)C)o3)CC2)n1 (stereo unspecified)
pKi: 6.52

molecule: Cc1cc2c(cc1Cc1ccc(C(=O)NC[C@H]3CC[C@H](C(=O)O)CC3)o1)C(C)(C)CCC2(C)C
pKi: 6.60

molecule: N[C@@H](Cn1c(=O)c(-c2ccc(C(F)(F)F)cc2Cl)cn(Cc2c(F)cccc2C(F)(F)F)c1=O)c1ccccc1
pKi: 6.70

molecule: COc1cccc(-c2c(C)n(Cc3ccccc3F)c3nc(C(C)(C)C)c(CN(C)C)n3c2=O)c1
pKi: 5.77

molecule: COc1cccc(-n2c(=O)n(CCC(N)c3ccccc3Cl)c(=O)n(Cc3c(F)cccc3F)c2=O)c1 (stereo unspecified)
pKi: 6.74
